Please go through the items and note down their IC50 (pSTAT3).
Measurement target: T1, human IL-23R endogenously expressed on DB cells (CRL-2289) (human, UniProt Q5VWK5 24-629)
T1 sequence (looked up): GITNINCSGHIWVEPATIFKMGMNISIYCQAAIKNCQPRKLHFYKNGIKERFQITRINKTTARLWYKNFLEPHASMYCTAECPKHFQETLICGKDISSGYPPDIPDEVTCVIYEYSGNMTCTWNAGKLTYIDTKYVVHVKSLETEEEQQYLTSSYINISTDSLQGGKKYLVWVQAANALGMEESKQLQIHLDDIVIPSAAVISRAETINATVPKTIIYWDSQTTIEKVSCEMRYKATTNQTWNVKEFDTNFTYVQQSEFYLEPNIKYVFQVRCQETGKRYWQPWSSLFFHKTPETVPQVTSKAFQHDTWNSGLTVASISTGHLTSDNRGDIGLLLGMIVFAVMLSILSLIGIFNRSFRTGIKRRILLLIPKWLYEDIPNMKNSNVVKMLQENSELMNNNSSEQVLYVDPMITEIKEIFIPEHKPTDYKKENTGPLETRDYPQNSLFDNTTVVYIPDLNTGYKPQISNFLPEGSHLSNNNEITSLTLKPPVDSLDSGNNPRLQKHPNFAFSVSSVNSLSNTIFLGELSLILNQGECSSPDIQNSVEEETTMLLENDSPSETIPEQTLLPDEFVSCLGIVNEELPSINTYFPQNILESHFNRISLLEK
Protocol description: cell-based or functional assay
*1 amine or outer side, *2 acyl side, *3 side chain or, on linkers, in order; H or OH if unused. Bridges are numbered along the chain shown (N, C = ends). [ ]: non-standard residue; d: D form. 2Nal = N[C@@H](Cc1ccc2ccccc2c1)C(=O)O; AEF = NCCOc1ccc(C[C@H](N)C(=O)O)cc1; αMeL = CC(C)C[C@](C)(N)C(=O)O; CH2COCH2 = O=C(C[*:1])C[*:2]
Write the value in nM as a bare number.

IC50 (pSTAT3) reading for Ac-KSCWQC[AEF][2Nal]LER-NH2 (lactam 1-10; linker 3-6 via CH2COCH2; SMILES CC(=O)N[C@H]1CCCCNC(=O)CC[C@@H](C(=O)N[C@@H](CCCNC(=N)N)C(N)=O)NC(=O)[C@H](CC(C)C)NC(=O)[C@H](Cc2ccc3ccccc3c2)NC(=O)[C@H](Cc2ccc(OCCN)cc2)NC(=O)[C@@H]2CSCC(=O)CSC[C@H](NC(=O)[C@H](CO)NC1=O)C(=O)N[C@@H](Cc1c[nH]c3ccccc13)C(=O)N[C@@H](CCC(N)=O)C(=O)N2) [Compound 29] : 19.7

IC50 (pSTAT3) reading for [(4-Aminomethyl)benzoyl]SCWQC[AEF][2Nal][αMeL]ER-NH2 (lactam N-10; linker 3-6 via CH2COCH2) [Compound 49] : 20.3

Where these numbers come from: patent US20250154198A1
